- testSummary: Concentration in Sprague-Dawley rat brain at 30 mg/kg, ip after 1 hr
- Assay type: ADME, organism-based
- Parameters: dose 30 mg/kg, route intraperitoneal
- runConditions: read-out: Ct
Exercise: for every item that follows, state its recorded concentration at 1 h.
Lab book: enter the figure in ng/g, no units written.

Query :: Supply recorded concentration at 1 h for Nc1nc(N)c(-c2ccc(NCc3ccc(Cl)cc3)cc2)c(COCc2ccccc2)n1 here.
Result :: 330

Query :: Supply recorded concentration at 1 h for Nc1nc(N)c(-c2ccc(NCc3ccc(Cl)cc3)cc2)c(CCc2ccccc2)n1 here.
Result :: 1340

----------
- targetOrTestSystem: Growth hormone secretagogue receptor type 1 (Homo sapiens)
- testSummary: Displacement of [125I]ghrelin from human GHS receptor expressed in CHOK cells
- Format: cell-based
Exercise: for every item that follows, state its recorded IC50.
Remember to follow the number with its unit.

Query :: Supply recorded IC50 for CCc1nc(N)nc(N)c1-c1ccc(NCc2ccnc(Cl)c2)cc1 here.
Result :: 110 nM

Query :: Supply recorded IC50 for N#Cc1ccc(CNc2ccc(-c3c(N)nc(N)nc3COCc3ccccc3)cc2)cc1 here.
Result :: 2.8 nM

Query :: Supply recorded IC50 for Nc1nc(N)c(-c2ccc(NCc3ccc([N+](=O)[O-])cc3)cc2)c(COCc2ccccc2)n1 here.
Result :: 0.2 nM

Query :: Supply recorded IC50 for Nc1nc(N)c(-c2ccc(NCc3ccc(C(F)(F)F)cc3)cc2)c(COCc2ccccc2)n1 here.
Result :: 2.9 nM

----------
Exercise: for every item that follows, state its recorded log10(IC50).
- targetOrTestSystem: Growth hormone secretagogue receptor type 1 (Homo sapiens, UniProt Q92847)
- Sequence (Q92847 whole entry): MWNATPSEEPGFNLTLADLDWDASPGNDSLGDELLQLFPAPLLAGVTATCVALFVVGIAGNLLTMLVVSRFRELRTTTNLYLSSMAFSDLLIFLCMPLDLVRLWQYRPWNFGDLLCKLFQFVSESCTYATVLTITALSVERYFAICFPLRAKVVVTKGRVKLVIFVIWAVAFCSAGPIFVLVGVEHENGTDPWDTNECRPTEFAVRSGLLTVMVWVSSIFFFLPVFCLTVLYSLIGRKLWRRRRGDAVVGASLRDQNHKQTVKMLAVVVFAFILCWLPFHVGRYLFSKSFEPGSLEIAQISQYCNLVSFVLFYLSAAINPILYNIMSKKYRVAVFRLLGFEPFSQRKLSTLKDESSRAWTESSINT
- testSummary: Antagonist activity at human GHS receptor by inhibition of ghrelin-induced intracellular calcium flux in CHOK cells
- Format: functional, cell-based
In our notation, the value equals log10 of IC50 in nM.

Query :: Supply recorded log10(IC50) for Nc1nc(N)c(-c2ccc(NCc3cnc4ccccc4c3)cc2)c(COCc2ccccc2)n1 here.
Result :: 2.89

Query :: Supply recorded log10(IC50) for CC(C)(C)CNc1ccc(-c2c(N)nc(N)nc2COCc2ccccc2)cc1 here.
Result :: 2.85

Query :: Supply recorded log10(IC50) for CCc1nc(N)nc(N)c1-c1ccc(NCc2ccc(C(C)O)cc2)cc1 (stereo not given) here.
Result :: 2.04

Query :: Supply recorded log10(IC50) for CCc1nc(N)nc(N)c1-c1ccc(NCc2ccnc(Cl)c2)cc1 here.
Result :: 2.34

Query :: Supply recorded log10(IC50) for CCc1nc(N)nc(N)c1-c1ccc(NCc2cc(F)c(S(C)(=O)=O)c(F)c2)cc1 here.
Result :: 1.65

Query :: Supply recorded log10(IC50) for Nc1nc(N)c(-c2ccc(NCc3ccc(Cl)s3)cc2)c(COCc2ccccc2)n1 here.
Result :: 2.51

Query :: Supply recorded log10(IC50) for CCc1nc(N)nc(N)c1-c1ccc(NCc2ccc(Cl)cc2)cc1 here.
Result :: 3.14

Query :: Supply recorded log10(IC50) for CCc1nc(N)nc(N)c1-c1ccc(N(C)Cc2ccc(S(C)(=O)=O)cc2)cc1 here.
Result :: 1.51

Query :: Supply recorded log10(IC50) for CCc1nc(N)nc(N)c1-c1ccc(CNc2ccc(Cl)cc2)cc1 here.
Result :: 3.50

Query :: Supply recorded log10(IC50) for Nc1nc(N)c(-c2ccc(NCc3ccc(C(F)(F)F)cc3)cc2)c(COCc2ccccc2)n1 here.
Result :: 1.99
